# PROTOCOL_DESCRIPTION: S. cerevisiae growth modulation with rapamycin, primary screen, strain BY4716, OD600, 96 h (AID 1091); note: test concentration not given here
# MEASUREMENT_CONTEXT: higher = more signal, called active from +8 up or from −8 down
Recorded z-score by entry
MEASUREMENT_LABEL: z-score

# MOLECULE, OBSERVED_MEASUREMENT
data = [
    ("CC(=O)OC[C@H]1O[C@H](C#CC(C)(C)C)C=C[C@@H]1OC(C)=O", -0.589),
    ("COC(=O)[C@H](C)NC(=O)CCC1CC(OC(=O)NCCc2ccc(F)cc2)CC2(CCCC(COC(=O)NCCCN3CCCC3=O)O2)O1 (stereo partly drawn)", 0.849),
    ("CC(C)=NOC[C@@H](O)COCc1ccco1", 0.746),
]

----------
# PROTOCOL_DESCRIPTION: CREB reporter modulators without forskolin, primary screen, cell-based, PC12, CRE-LacZ reporter, unstimulated (AID 1145)
# MEASUREMENT_CONTEXT: no forskolin, luminescence, 4.5 h, higher = more signal, called active from +8 up or from −8 down
# key: entry, value: z-score

# COMPOUND, z-score
rows = [
    ("CO[C@@H]1C=CCC(=O)N2CCC[C@H]2C(=O)OC[C@H](C)C(=O)OC[C@H]1C", -0.113),
    ("CC(=O)OC[C@H]1O[C@H](C#CC(C)(C)C)C=C[C@@H]1OC(C)=O", -0.162),
    ("CCCNC(=O)OC[C@H]1O[C@H](CCON=C(C)CCN2CCc3nc(-c4ccccc4)c(-c4ccccc4)cc3C2)C=C[C@@H]1Oc1ccc(OC)cc1", 2.49),
    ("Cc1cc2c(nc1C)CCCN2CC(C)ON=C[C@@H](C)[C@H](OCc1ccccc1)C(C)C (stereo partly drawn)", 0.248),
    ("C=C(C)C(=O)OC[C@@H]1CN2[C@@H](CC[C@@H](C)[C@@H]2c2ccc(Br)cc2)C(=O)O1", 1.54),
    ("CCN1C(=O)[C@H]2[C@H]3[C@H](O)[C@H](O)CC(=NOC)[C@@H]3CC[C@H]2C1=O", -1.12),
    ("Cc1ccc(S(=O)(=O)N[C@H]2COC(=O)[C@@H](C)COC(=O)[C@H](C)NC(=O)CC=C[C@H]2C)cc1", -0.204),
    ("CCCNC(=O)OC[C@H]1O[C@H](CCON=C(C)CCC(=O)OC[C@H]2O[C@H](C#Cc3ccccc3)C=C[C@@H]2Oc2ccc(C)cc2)C=C[C@@H]1Oc1ccc(OC)cc1", -0.729),
]

----------
# PROTOCOL_DESCRIPTION: basal RPMI8226 mitochondrial membrane potential changes, profiling panel, cell-based, JC-1 fluorescence, 24 h, 100 nL compound (AID 1169); note: test concentration not given here
# MEASUREMENT_CONTEXT: RPMI8226 myeloma, JC-1 mitochondrial potential fluorescence, higher = more signal
Form field: z-score (one value per entry).

# MOLECULE, z-score
measured = [
    ("CC(C)=NOCc1ccc(-c2cn([C@@H]3COC[C@H]3O)nn2)cc1", 0.169),
    ("CC(C)C(=O)N[C@@H]1CCCN1C(=O)C=Cc1ccccc1", 0.119),
    ("CCN1C(=O)[C@H]2[C@H]3[C@H](O)[C@H](O)CC(=NOC)[C@@H]3CC[C@H]2C1=O", 0.0805),
    ("CCCNC(=O)OC[C@H]1O[C@H](CCON=C(C)CCN2CCc3nc(-c4ccccc4)c(-c4ccccc4)cc3C2)C=C[C@@H]1Oc1ccc(OC)cc1", 0.179),
    ("CCOC(=O)[C@H](Cc1ccccc1)NC(=O)CCC1CC(OC(=O)NCc2cccc3ccccc23)CC2(CCCC(COC(=O)NCCCN3CCCC3=O)O2)O1 (stereo partly specified)", -0.195),
    ("CC(C)CON=C1C[C@@H](O)[C@@H](O)[C@@H]2[C@@H]3C(=O)N(c4cccc(Oc5ccccc5)c4)C(=O)[C@@H]3CC[C@H]12", 0.288),
    ("CCOC(=O)NN=C1C[C@@H](O)[C@@H](O)[C@@H]2[C@@H]3C(=O)N(Cc4ccc5c(c4)OCO5)C(=O)[C@@H]3CC[C@@H]12", 0.612),
    ("COc1ccc(COC(=O)NN=C2C[C@@H](O)[C@@H](O)[C@@H]3[C@@H]4C(=O)N(C(C)(C)C)C(=O)[C@@H]4CC[C@H]23)cc1", 0.704),
    ("Cc1cc2c(nc1C)CCCN2CC(C)ON=C[C@@H](C)[C@H](OCc1ccccc1)C(C)C (stereo partly specified)", 0.708),
    ("Cc1ccc(S(=O)(=O)N[C@H]2COC(=O)[C@@H](C)COC(=O)[C@H](C)NC(=O)CC=C[C@H]2C)cc1", -0.137),
    ("O=C1[C@H]2[C@H]3[C@H](O)[C@H](O)CC(=NOCc4ccccc4)[C@H]3CC[C@H]2C(=O)N1Cc1ccccc1", 0.00736),
    ("CCN1C(=O)[C@H]2[C@H]3[C@H](O)[C@H](O)CC(=NNC(=O)OCc4ccc(OC)cc4)[C@H]3CC[C@H]2C1=O", -0.236),
    ("CCOC(=O)NN=C1C[C@@H](O)[C@@H](O)[C@@H]2[C@@H]3C(=O)N(Cc4ccccc4)C(=O)[C@@H]3CC[C@@H]12", 0.387),
    ("O=C(NN=C1C[C@@H](O)[C@@H](O)[C@@H]2[C@@H]3C(=O)N(Cc4ccc5c(c4)OCO5)C(=O)[C@@H]3CC[C@H]12)OCc1ccccc1", 0.559),
    ("CO[C@@H]1COC(=O)CC=C[C@H](C)COC(=O)[C@H](C)NC(=O)CC=C[C@H]1C", -0.0124),
    ("CCOC(=O)[C@H](CC(C)C)NC(=O)CCC1CC(OC(=O)NCc2cccc3ccccc23)CC2(CCCC(COC(=O)NCc3ccccc3)O2)O1 (stereo partly specified)", 0.0897),
    ("C[C@@H](c1ccccc1)N1C(=O)[C@H]2[C@H]3[C@H](O)[C@H](O)CC(=O)[C@@H]3CC[C@H]2C1=O", -0.438),
    ("CC(C)=NO[C@@H](C)c1cc(-c2c(C)cc(C)cc2C)no1", -0.328),
    ("C[C@@H](ON=C1[C@H]2CCn3c(=O)n(-c4ccccc4)c(=O)n3[C@H]2[C@H](O)[C@@H]2O[C@H]12)c1cn([C@H](CO)Cc2ccccc2)nn1", -0.334),
    ("CO[C@H]1COC(=O)[C@H](C)NC(=O)CC=C[C@@H](C)[C@H](OC)COC(=O)CC=C[C@@H]1C", 0.56),
    ("CCOC(=O)CCN1C(=O)[C@H]2[C@H]3[C@H](O)[C@H](O)CC(=NNC(=O)OCC)[C@@H]3CC[C@H]2C1=O", 0.209),
]
